# assay_target: Platelet-derived growth factor receptor beta (Homo sapiens)
# test_protocol: Inhibition of PDGFRbeta (unknown origin) at 10 uM
measured_attribute: inhibition (%)

Known results for molecules:
1. Cn1c(=O)c(Oc2ccc(F)cc2F)cc2cnc(NC3CCN(S(C)(=O)=O)CC3)nc21 = 12
2. Cn1c(=O)c(Oc2ccc(F)cc2F)cc2cnc(Nc3ccc(N4CCCCC4)cc3)nc21 = 39
3. Cn1c(=O)c(Oc2c(Cl)cccc2Cl)cc2cnc(NC3CCOCC3)nc21 = 0

[P] CN(C)CCNc1ncc2cc(Oc3ccc(F)cc3F)c(=O)n(C)c2n1
[Q] CN1CCN(CCCNc2ncc3cc(Oc4ccc(F)cc4F)c(=O)n(C)c3n2)CC1
Query string: # query: argmin of inhibition over P and Q Give the label of your selection.
Result string: P

[P] Cn1c(=O)c(Oc2ccc(F)cc2F)cc2cnc(Nc3ccc(N4CCC(O)CC4)cc3)nc21
[Q] CN1CCN(c2ccc(Nc3ncc4cc(Oc5c(Cl)cccc5Cl)c(=O)n(C)c4n3)cc2)CC1
[R] Cn1c(=O)c(Oc2ccc(F)cc2F)cc2cnc(NCCc3ccccn3)nc21
Query string: Rank descending by inhibition. Provide the ranking by listing each label in its place in the requested order.
Result string: P, Q, R

* * *

# assay_target: Tyrosine-protein kinase JAK3 (Homo sapiens) (UniProt P52333)
# Sequence (P52333 whole entry): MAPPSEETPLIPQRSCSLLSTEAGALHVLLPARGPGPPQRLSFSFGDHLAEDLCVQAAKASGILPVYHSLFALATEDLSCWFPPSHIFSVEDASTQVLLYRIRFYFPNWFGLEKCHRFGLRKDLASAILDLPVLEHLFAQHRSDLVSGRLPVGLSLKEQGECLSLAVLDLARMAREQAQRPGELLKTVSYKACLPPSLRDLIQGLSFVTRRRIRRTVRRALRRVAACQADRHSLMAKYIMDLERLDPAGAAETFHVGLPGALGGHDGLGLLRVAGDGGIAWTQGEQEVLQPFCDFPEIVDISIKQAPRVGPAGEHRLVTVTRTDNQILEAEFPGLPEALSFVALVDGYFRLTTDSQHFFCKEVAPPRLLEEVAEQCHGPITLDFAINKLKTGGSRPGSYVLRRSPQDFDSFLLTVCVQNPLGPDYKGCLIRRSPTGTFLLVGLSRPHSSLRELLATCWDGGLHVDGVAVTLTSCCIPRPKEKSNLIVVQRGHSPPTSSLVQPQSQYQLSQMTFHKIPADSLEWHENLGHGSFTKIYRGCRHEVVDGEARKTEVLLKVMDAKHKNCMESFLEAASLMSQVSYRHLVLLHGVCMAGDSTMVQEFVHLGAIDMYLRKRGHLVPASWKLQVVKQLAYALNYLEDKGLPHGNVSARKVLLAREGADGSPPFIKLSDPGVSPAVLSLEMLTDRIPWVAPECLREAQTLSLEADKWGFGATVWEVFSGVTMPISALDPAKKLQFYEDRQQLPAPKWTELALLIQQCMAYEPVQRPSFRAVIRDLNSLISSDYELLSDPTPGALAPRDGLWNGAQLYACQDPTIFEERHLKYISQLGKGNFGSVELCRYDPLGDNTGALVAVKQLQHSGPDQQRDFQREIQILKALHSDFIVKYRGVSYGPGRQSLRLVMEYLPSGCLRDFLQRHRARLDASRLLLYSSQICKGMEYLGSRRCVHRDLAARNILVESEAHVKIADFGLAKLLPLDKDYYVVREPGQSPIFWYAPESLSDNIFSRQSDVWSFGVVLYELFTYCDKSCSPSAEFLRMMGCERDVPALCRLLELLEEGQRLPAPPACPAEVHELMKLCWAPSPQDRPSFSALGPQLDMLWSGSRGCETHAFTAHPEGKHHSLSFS
# test_protocol: Inhibition of JAK3 (unknown origin) at 10 uM
measured_attribute: inhibition (%)

Known results for compounds:
1. CN1CCN(c2ccc(Nc3ncc4cc(Oc5c(Cl)cccc5Cl)c(=O)n(C)c4n3)cc2)CC1 = 7
2. Cn1c(=O)c(Oc2ccc(F)cc2F)cc2cnc(NC3CCN(S(C)(=O)=O)CC3)nc21 = 0
3. Cn1c(=O)c(Oc2c(Cl)cccc2Cl)cc2cnc(NC3CCOCC3)nc21 = 0

[A] CN1CCN(c2ccc(Nc3ncc4cc(Oc5ccc(F)cc5F)c(=O)n(C)c4n3)cc2)CC1
[B] CN1CCN(CCCNc2ncc3cc(Oc4ccc(F)cc4F)c(=O)n(C)c3n2)CC1
Query string: # query: argmin of inhibition over A and B Give the label of your selection.
Result string: B

* * *

# assay_target: Fibroblast growth factor receptor 3 (Homo sapiens) (UniProt P22607)
# Sequence (P22607 23-806 limits assumed): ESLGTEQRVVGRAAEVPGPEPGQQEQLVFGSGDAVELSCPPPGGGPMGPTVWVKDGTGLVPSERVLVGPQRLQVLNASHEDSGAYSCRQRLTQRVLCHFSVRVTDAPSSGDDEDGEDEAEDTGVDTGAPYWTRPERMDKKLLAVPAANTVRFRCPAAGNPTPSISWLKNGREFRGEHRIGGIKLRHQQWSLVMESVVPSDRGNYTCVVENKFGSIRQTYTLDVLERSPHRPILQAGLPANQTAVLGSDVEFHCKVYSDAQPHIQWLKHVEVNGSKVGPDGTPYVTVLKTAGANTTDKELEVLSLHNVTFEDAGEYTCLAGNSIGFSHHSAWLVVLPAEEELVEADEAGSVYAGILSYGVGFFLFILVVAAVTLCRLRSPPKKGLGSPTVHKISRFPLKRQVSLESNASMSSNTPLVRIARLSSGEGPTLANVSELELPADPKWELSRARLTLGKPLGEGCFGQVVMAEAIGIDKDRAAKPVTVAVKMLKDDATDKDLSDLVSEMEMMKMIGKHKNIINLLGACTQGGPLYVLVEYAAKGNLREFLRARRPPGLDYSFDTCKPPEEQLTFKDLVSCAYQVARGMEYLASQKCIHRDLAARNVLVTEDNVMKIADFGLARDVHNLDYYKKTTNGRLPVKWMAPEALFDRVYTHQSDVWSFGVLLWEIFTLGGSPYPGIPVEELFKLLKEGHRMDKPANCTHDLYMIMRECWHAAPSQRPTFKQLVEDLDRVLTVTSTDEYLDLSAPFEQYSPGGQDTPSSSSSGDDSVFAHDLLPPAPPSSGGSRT
# test_protocol: Inhibition of FGFR3 (unknown origin) at 10 uM
measured_attribute: inhibition (%)

1) Cn1c(=O)c(Oc2ccc(F)cc2F)cc2cnc(NC3CCN(S(C)(=O)=O)CC3)nc21 = 0
2) CN1CCN(CCCNc2ncc3cc(Oc4ccc(F)cc4F)c(=O)n(C)c3n2)CC1 = 0
3) Cn1c(=O)c(Oc2c(Cl)cccc2Cl)cc2cnc(NC3CCOCC3)nc21 = 3
4) Cn1c(=O)c(Oc2ccc(F)cc2F)cc2cnc(Nc3ccc(N4CCCCC4)cc3)nc21 = 7

[1] CN1CCN(c2ccc(Nc3ncc4cc(Oc5c(Cl)cccc5Cl)c(=O)n(C)c4n3)cc2)CC1
[2] Cn1c(=O)c(Oc2ccc(F)cc2F)cc2cnc(NCCc3ccccn3)nc21
[3] CN1CCN(c2ccc(Nc3ncc4cc(Oc5ccc(F)cc5F)c(=O)n(C)c4n3)cc2)CC1
[4] Cn1c(=O)c(Oc2ccc(F)cc2F)cc2cnc(Nc3ccc(N4CCC(O)CC4)cc3)nc21
Query string: Number of compounds to sort: 4. Sort criterion: inhibition, ascending. Provide the ranking by listing each label in its place in the requested order.
Result string: 3, 2, 1, 4

* * *

# assay_target: Angiopoietin-1 receptor (Homo sapiens) (UniProt Q02763)
# Sequence (Q02763 whole entry): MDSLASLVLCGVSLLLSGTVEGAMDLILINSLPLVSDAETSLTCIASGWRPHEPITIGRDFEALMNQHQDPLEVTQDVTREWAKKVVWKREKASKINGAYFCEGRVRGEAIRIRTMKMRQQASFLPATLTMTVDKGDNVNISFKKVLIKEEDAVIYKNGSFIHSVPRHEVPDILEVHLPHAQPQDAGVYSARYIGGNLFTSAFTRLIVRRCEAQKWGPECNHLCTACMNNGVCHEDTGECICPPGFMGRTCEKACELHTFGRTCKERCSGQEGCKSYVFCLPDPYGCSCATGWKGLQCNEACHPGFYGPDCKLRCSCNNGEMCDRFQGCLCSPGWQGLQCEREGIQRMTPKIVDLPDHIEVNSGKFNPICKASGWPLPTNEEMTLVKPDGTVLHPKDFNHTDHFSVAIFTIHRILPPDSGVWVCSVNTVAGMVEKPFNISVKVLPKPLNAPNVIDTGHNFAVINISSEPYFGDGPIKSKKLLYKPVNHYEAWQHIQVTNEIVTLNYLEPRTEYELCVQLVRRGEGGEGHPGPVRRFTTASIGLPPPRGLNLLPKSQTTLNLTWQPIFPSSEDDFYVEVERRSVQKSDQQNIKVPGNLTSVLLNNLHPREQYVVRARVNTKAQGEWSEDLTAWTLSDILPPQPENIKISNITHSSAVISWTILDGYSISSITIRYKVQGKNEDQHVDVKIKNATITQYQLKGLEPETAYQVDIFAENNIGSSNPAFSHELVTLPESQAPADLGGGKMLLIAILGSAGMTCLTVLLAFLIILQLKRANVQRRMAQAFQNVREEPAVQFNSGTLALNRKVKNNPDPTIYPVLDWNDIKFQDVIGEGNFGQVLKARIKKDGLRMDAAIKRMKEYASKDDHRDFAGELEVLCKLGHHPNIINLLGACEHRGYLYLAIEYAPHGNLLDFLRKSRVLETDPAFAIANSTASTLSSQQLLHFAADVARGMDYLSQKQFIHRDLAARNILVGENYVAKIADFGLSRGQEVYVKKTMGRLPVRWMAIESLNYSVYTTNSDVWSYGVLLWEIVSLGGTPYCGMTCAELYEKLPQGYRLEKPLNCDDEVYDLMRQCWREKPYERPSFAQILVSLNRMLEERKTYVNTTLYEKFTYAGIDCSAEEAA
# test_protocol: Inhibition of TIE2 (unknown origin) at 10 uM
measured_attribute: inhibition (%)

1. Cn1c(=O)c(Oc2c(Cl)cccc2Cl)cc2cnc(NC3CCOCC3)nc21 = 0

[a] Cn1c(=O)c(Oc2ccc(F)cc2F)cc2cnc(NC3CCN(S(C)(=O)=O)CC3)nc21
[b] CN1CCN(c2ccc(Nc3ncc4cc(Oc5c(Cl)cccc5Cl)c(=O)n(C)c4n3)cc2)CC1
[c] Cn1c(=O)c(Oc2ccc(F)cc2F)cc2cnc(NCCc3ccccn3)nc21
[d] CN1CCN(c2ccc(Nc3ncc4cc(Oc5ccc(F)cc5F)c(=O)n(C)c4n3)cc2)CC1
Query string: Rank descending by inhibition. Provide the ranking by listing each label in its place in the requested order.
Result string: d, b, a, c
(d: 5%, b: 3%, a: 2%, c: 0%)

* * *

# assay_target: Serine/threonine-protein kinase PAK 4 (Homo sapiens) (UniProt O96013)
# Sequence (O96013 whole entry, looked up): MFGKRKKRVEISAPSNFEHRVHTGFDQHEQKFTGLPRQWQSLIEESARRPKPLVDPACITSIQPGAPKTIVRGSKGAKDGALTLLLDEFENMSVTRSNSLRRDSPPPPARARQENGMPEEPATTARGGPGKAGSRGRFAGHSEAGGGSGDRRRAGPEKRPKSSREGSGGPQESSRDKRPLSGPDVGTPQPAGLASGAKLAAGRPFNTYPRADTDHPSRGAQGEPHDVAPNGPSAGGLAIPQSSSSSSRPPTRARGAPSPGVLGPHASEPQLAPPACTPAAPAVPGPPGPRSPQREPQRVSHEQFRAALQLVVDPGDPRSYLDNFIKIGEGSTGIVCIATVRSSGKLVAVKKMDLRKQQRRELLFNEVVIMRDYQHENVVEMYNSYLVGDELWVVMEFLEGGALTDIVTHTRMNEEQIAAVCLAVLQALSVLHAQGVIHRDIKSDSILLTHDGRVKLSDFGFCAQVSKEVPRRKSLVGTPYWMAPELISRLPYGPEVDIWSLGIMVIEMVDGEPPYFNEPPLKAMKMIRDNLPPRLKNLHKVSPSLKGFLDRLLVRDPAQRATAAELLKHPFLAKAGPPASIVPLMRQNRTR
# test_protocol: Inhibition of PAK4 (unknown origin) at 10 uM
measured_attribute: inhibition (%)

Known results for compounds:
1) Cn1c(=O)c(Oc2ccc(F)cc2F)cc2cnc(NC3CCN(S(C)(=O)=O)CC3)nc21 = 5
2) Cn1c(=O)c(Oc2c(Cl)cccc2Cl)cc2cnc(NC3CCOCC3)nc21 = 14
3) CN1CCN(c2ccc(Nc3ncc4cc(Oc5ccc(F)cc5F)c(=O)n(C)c4n3)cc2)CC1 = 0
4) CN(C)CCNc1ncc2cc(Oc3ccc(F)cc3F)c(=O)n(C)c2n1 = 20
5) Cn1c(=O)c(Oc2ccc(F)cc2F)cc2cnc(NCCc3ccccn3)nc21 = 22
6) Cn1c(=O)c(Oc2ccc(F)cc2F)cc2cnc(Nc3ccc(N4CCC(O)CC4)cc3)nc21 = 36

[a] CN1CCN(c2ccc(Nc3ncc4cc(Oc5c(Cl)cccc5Cl)c(=O)n(C)c4n3)cc2)CC1
[b] Cn1c(=O)c(Oc2ccc(F)cc2F)cc2cnc(Nc3ccc(N4CCCCC4)cc3)nc21
[c] CN1CCN(CCCNc2ncc3cc(Oc4ccc(F)cc4F)c(=O)n(C)c3n2)CC1
Query string: Number of compounds to sort: 3. Sort criterion: inhibition, ascending. Provide the ranking by listing each label in its place in the requested order.
Result string: c, a, b
(c: 2%, a: 18%, b: 29%)

* * *

# assay_target: Inhibitor of nuclear factor kappa-B kinase subunit beta (Homo sapiens)
# test_protocol: Inhibition of IKKbeta (unknown origin) at 10 uM
measured_attribute: inhibition (%)

Known results for molecules:
1. Cn1c(=O)c(Oc2ccc(F)cc2F)cc2cnc(NC3CCN(S(C)(=O)=O)CC3)nc21 = 4
2. Cn1c(=O)c(Oc2ccc(F)cc2F)cc2cnc(Nc3ccc(N4CCCCC4)cc3)nc21 = 13

[I] CN1CCN(CCCNc2ncc3cc(Oc4ccc(F)cc4F)c(=O)n(C)c3n2)CC1
[II] CN1CCN(c2ccc(Nc3ncc4cc(Oc5c(Cl)cccc5Cl)c(=O)n(C)c4n3)cc2)CC1
Query string: # query: argmin of inhibition over I and II Give the label of your selection.
Result string: II
(II: 0%, I: 6%)

* * *

# assay_target: Proto-oncogene tyrosine-protein kinase Src (Homo sapiens) (UniProt P12931)
# Sequence (P12931 2-536 limits assumed): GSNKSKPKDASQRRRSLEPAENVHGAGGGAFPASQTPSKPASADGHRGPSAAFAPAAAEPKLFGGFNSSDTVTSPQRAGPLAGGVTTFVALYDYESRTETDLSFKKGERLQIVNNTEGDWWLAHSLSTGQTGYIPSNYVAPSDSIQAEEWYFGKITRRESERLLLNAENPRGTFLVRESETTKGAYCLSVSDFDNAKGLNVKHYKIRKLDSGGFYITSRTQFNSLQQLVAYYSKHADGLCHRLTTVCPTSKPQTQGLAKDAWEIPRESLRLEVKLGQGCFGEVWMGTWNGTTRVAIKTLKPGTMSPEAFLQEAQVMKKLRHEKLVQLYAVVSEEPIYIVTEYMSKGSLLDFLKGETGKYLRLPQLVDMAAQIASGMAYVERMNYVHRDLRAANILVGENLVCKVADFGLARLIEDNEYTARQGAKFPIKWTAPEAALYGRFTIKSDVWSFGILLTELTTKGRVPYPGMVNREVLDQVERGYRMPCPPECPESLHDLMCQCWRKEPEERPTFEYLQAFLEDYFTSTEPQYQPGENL
# test_protocol: Inhibition of SRC (unknown origin) at 10 uM
measured_attribute: inhibition (%)

Known results for compounds:
1. CN1CCN(CCCNc2ncc3cc(Oc4ccc(F)cc4F)c(=O)n(C)c3n2)CC1 = 18
2. Cn1c(=O)c(Oc2ccc(F)cc2F)cc2cnc(Nc3ccc(N4CCC(O)CC4)cc3)nc21 = 100
3. Cn1c(=O)c(Oc2ccc(F)cc2F)cc2cnc(Nc3ccc(N4CCCCC4)cc3)nc21 = 28

[I] Cn1c(=O)c(Oc2ccc(F)cc2F)cc2cnc(NC3CCN(S(C)(=O)=O)CC3)nc21
[II] CN(C)CCNc1ncc2cc(Oc3ccc(F)cc3F)c(=O)n(C)c2n1
Query string: Hi there! Just curious which has the higher inhibition between I and II . Give the label of your selection.
Result string: II
(II: 6%, I: 4%)

* * *

# assay_target: Mitogen-activated protein kinase 8 (Homo sapiens, UniProt P45983)
# Sequence (P45983 whole entry): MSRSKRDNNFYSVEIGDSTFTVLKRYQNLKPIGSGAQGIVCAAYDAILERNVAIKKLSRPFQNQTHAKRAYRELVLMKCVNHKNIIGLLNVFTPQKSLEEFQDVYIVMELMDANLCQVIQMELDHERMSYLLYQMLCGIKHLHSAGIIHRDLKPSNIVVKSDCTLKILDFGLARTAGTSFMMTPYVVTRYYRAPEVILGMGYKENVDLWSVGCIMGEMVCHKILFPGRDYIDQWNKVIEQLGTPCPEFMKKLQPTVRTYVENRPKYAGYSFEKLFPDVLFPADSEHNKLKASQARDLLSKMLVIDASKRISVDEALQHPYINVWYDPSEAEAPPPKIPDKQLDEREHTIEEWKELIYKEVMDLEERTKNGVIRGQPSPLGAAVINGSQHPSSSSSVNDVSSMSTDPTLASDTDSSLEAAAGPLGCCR
# test_protocol: Inhibition of JNK1 (unknown origin) expressed in HEK293 cells assessed as anisomycin-induced JNK phosphorylation at 10 uM incubated for 30 mins by Western blot analysis relative to anisomycin
# Type: cell-based
# Parameters: scale not given: the % may be the effect or the level left
measured_attribute: Activity (%)

1. Cn1c(=O)c(Oc2ccc(F)cc2F)cc2cnc(NCCNS(C)(=O)=O)nc21 = 75.8
2. Cn1c(=O)c(Oc2ccc(F)cc2F)cc2cnc(NC3CCNCC3)nc21 = 81

[a] Cn1c(=O)c(Oc2ccc(F)cc2F)cc2cnc(NC3CCCCCC3)nc21
[b] Cn1c(=O)c(Oc2c(Cl)cccc2Cl)cc2cnc(NC3CCOCC3)nc21
Query string: Hi there! Just curious which has the higher Activity between a and b . Give the label of your selection.
Result string: a
(a: 84%, b: 55.2%)

* * *

# assay_target: Tyrosine-protein kinase JAK3 (Homo sapiens) (UniProt P52333)
# test_protocol: Inhibition of JAK3 (unknown origin) at 10 uM
measured_attribute: inhibition (%)

1. CN(C)CCNc1ncc2cc(Oc3ccc(F)cc3F)c(=O)n(C)c2n1 = 0

[I] Cn1c(=O)c(Oc2ccc(F)cc2F)cc2cnc(Nc3ccc(N4CCC(O)CC4)cc3)nc21
[II] Cn1c(=O)c(Oc2ccc(F)cc2F)cc2cnc(Nc3ccc(N4CCCCC4)cc3)nc21
[III] Cn1c(=O)c(Oc2ccc(F)cc2F)cc2cnc(NCCc3ccccn3)nc21
Query string: Number of molecules to sort: 3. Sort criterion: inhibition, ascending. Provide the ranking by listing each label in its place in the requested order.
Result string: III, II, I
